Assay: Acute toxicity (LD50) in rats, oral
Conditions: rat, in vivo, administered orally
endpoint name: LD50 (mg/kg)

| compound | quantitative readout |
| --- | --- |
| c1ccc(C(CC2=NCCN2)c2ccccn2)cc1 (stereo not shown) | 867 |
